The values you see were collected from the MegaScale stability set (Tsuboyama et al. 2023).

B1: 5KPH (parent)
chain: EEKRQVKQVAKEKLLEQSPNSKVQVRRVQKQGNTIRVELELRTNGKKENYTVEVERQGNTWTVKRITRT

# Variants of: B1
# assay method text: folding stability dG (cDNA display proteolysis); higher = more stable
# conditions: PBS, room temperature
Let's look at some variants and their measured folding stability dG.
Enter your answer as a number in kcal/mol; do not include the unit.

Field: example entries. Status: answers known.
N49F    4.14
L15Y    3.14
S18L    4.03
Q24W    4.4

Look up folding stability dG: `V37A`
2.15

Lookup `V52Q`
-0.464

Lookup `L39R`
-0.147
